Sourced from PubChem BioAssay AID1963834

# System: 873145-292-R-J1-PDC complex spheroid viability;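 note: luminescence signal used as surrogate for viable cell content; spheroids exposed to compounds for 7 days before viability readout; 100% = DMSO vehicle control viability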
# Experiment notes: Anticancer human tumor 873145-292-R-J1-PDC patient-derived renal clear cell carcinoma cell line growth inhibition [POLQ]
# Run conditions: second compound 0.1 µM; first compound 0.00316 µM; hits give low values
Measure name: viability, T/C

Consider the reported viability, T/C for these molecules:
CC[C@@]1(O)C(=O)OCc2c1cc1n(c2=O)Cc2cc3c(CN(C)C)c(O)ccc3nc2-1 + Cc1cccc(N(C)C(=O)C2C(O)CCN2c2nc(C)cc(C(F)(F)F)c2C#N)c1	97.8%
Cn1ncnc1[C@H]1c2n[nH]c(=O)c3cc(F)cc(c23)N[C@@H]1c1ccc(F)cc1 + COC1C(OC(N)=O)C(O)C(Oc2ccc3c(O)c(NC(=O)c4ccc(O)c(CC=C(C)C)c4)c(=O)oc3c2C)OC1(C)C	96.2%
C=CCn1c(=O)c2cnc(Nc3ccc(N4CCN(C)CC4)cc3)nc2n1-c1cccc(C(C)(C)O)n1 + COC1C(OC(N)=O)C(O)C(Oc2ccc3c(O)c(NC(=O)c4ccc(O)c(CC=C(C)C)c4)c(=O)oc3c2C)OC1(C)C	102%
COc1cccc(OCCCN)c1-c1cc(Nc2cnc(C#N)cn2)n[nH]1 + Nc1ccc(C#CCN(C(=O)Cc2ncc(C(F)(F)F)cc2C(F)(F)F)c2ccc(F)cc2)nn1	91%
CCc1c2c(nc3ccc(O)cc13)-c1cc3c(c(=O)n1C2)COC(=O)[C@]3(O)CC + Cc1cccc(N(C)C(=O)C2C(O)CCN2c2nc(C)cc(C(F)(F)F)c2C#N)c1	103%
CCc1c2c(nc3ccc(O)cc13)-c1cc3c(c(=O)n1C2)COC(=O)[C@]3(O)CC + COC1C(OC(N)=O)C(O)C(Oc2ccc3c(O)c(NC(=O)c4ccc(O)c(CC=C(C)C)c4)c(=O)oc3c2C)OC1(C)C	96.4%

Enter reported viability, T/C observed with 873145-292-R-J1-PDC complex spheroid viability for C=CCn1c(=O)c2cnc(Nc3ccc(N4CCN(C)CC4)cc3)nc2n1-c1cccc(C(C)(C)O)n1 + Nc1ccc(C#CCN(C(=O)Cc2ncc(C(F)(F)F)cc2C(F)(F)F)c2ccc(F)cc2)nn1
106%

Enter reported viability, T/C observed with 873145-292-R-J1-PDC complex spheroid viability for CC[C@@]1(O)C(=O)OCc2c1cc1n(c2=O)Cc2cc3c(CN(C)C)c(O)ccc3nc2-1 + COC1C(OC(N)=O)C(O)C(Oc2ccc3c(O)c(NC(=O)c4ccc(O)c(CC=C(C)C)c4)c(=O)oc3c2C)OC1(C)C
90.8%

Enter reported viability, T/C observed with 873145-292-R-J1-PDC complex spheroid viability for C=CCn1c(=O)c2cnc(Nc3ccc(N4CCN(C)CC4)cc3)nc2n1-c1cccc(C(C)(C)O)n1 + Cc1cccc(N(C)C(=O)C2C(O)CCN2c2nc(C)cc(C(F)(F)F)c2C#N)c1
101%

Enter reported viability, T/C observed with 873145-292-R-J1-PDC complex spheroid viability for CC[C@@]1(O)C(=O)OCc2c1cc1n(c2=O)Cc2cc3c(CN(C)C)c(O)ccc3nc2-1 + Nc1ccc(C#CCN(C(=O)Cc2ncc(C(F)(F)F)cc2C(F)(F)F)c2ccc(F)cc2)nn1
107%

Enter reported viability, T/C observed with 873145-292-R-J1-PDC complex spheroid viability for Cn1ncnc1[C@H]1c2n[nH]c(=O)c3cc(F)cc(c23)N[C@@H]1c1ccc(F)cc1 + Nc1ccc(C#CCN(C(=O)Cc2ncc(C(F)(F)F)cc2C(F)(F)F)c2ccc(F)cc2)nn1
107%

Enter reported viability, T/C observed with 873145-292-R-J1-PDC complex spheroid viability for COc1cccc(OCCCN)c1-c1cc(Nc2cnc(C#N)cn2)n[nH]1 + Cc1cccc(N(C)C(=O)C2C(O)CCN2c2nc(C)cc(C(F)(F)F)c2C#N)c1
104%

Enter reported viability, T/C observed with 873145-292-R-J1-PDC complex spheroid viability for COc1cccc(OCCCN)c1-c1cc(Nc2cnc(C#N)cn2)n[nH]1 + COC1C(OC(N)=O)C(O)C(Oc2ccc3c(O)c(NC(=O)c4ccc(O)c(CC=C(C)C)c4)c(=O)oc3c2C)OC1(C)C
106%

Enter reported viability, T/C observed with 873145-292-R-J1-PDC complex spheroid viability for Cn1ncnc1[C@H]1c2n[nH]c(=O)c3cc(F)cc(c23)N[C@@H]1c1ccc(F)cc1 + Cc1cccc(N(C)C(=O)C2C(O)CCN2c2nc(C)cc(C(F)(F)F)c2C#N)c1
91.6%

Enter reported viability, T/C observed with 873145-292-R-J1-PDC complex spheroid viability for CCc1c2c(nc3ccc(O)cc13)-c1cc3c(c(=O)n1C2)COC(=O)[C@]3(O)CC + Nc1ccc(C#CCN(C(=O)Cc2ncc(C(F)(F)F)cc2C(F)(F)F)c2ccc(F)cc2)nn1
106%
